Tested on: RAW 264.7 macrophages
Experiment: SAFIRE macrophage assay: host toxicity (adherent macrophage count, morphology)
Format: cell-based
Conditions: 25 uM
In plain terms, low 25 uM Avg Cell # Score, meaning strictly below 50, gives YES, and everything else gives NO.

| compound | qualitative label |
| --- | --- |
| CCOC(=O)c1cccc(OCC(O)CN2CCC(Nc3nccc(C(F)(F)F)n3)C2)c1 (stereo not drawn) | YES |
| OC(COc1ccc(Cl)c(Cl)c1)CN1CC2CCC(C1)O2 (stereo not drawn) | NO |
| N[C@H]1CC[C@@H](NCC(O)COc2cc(Cl)cc(Cl)c2)CC1 (stereo partly drawn) | YES |
| OC(CNC1CCNCC1)COc1ccc(Cl)c(Cl)c1 (stereo not drawn) | NO |
| OC(COc1ccc(Cl)c(Cl)c1)CN1CCC(NC2CC2)C1 (stereo not drawn) | NO |
| NC1CCN(C[C@H](O)COc2ccc(Cl)c(Cl)c2)C1 (stereo partly drawn) | NO |
| NCC1CCN(CC(O)COc2ccc(Cl)c(Cl)c2)CC1 (stereo not drawn) | YES |
| N#Cc1ccc(OCC(O)CN2CCC(Nc3nccc(C(F)(F)F)n3)CC2)cc1 (stereo not drawn) | NO |

// provenance: paper PMC10746280
